Cited source: patent US7638535B2

assay.system: h5-HT4b (Homo sapiens, UniProt Q13639)
Construct: expressed in transfected cells; host or cells: HEK 293 (clone 9), membrane preparation
Sequence (Q13639 whole entry): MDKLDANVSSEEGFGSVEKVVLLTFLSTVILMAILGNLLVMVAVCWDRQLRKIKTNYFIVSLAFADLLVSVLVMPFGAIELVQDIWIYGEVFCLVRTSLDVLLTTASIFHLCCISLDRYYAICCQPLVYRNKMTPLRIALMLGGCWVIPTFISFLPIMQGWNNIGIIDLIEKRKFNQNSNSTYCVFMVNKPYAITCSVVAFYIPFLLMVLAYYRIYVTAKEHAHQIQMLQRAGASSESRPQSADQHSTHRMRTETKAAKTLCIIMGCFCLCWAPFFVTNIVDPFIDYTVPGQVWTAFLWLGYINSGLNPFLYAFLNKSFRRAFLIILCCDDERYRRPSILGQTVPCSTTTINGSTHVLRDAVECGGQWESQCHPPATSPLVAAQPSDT
procedure.text: 5HT4 antagonism: [3H]GR113808 binding to membranes of h5-HT4b-HEK 293 clone 9 cells
condition.parameters: displacement of [3H]GR113808 0.1 nM, h5-HT4b-HEK 293 membranes, 30 min at 25° C.; read-out: pIC50 (5HT4 antagonistic data) (converted)
test.readout: IC50 (nM)
Answer with a number only, understood to be in nM.

molecule	assay.system	IC50 / nM
CO[C@@H]1CN(CCCO)CC[C@H]1CNC(=O)c1cc(C)cc2c1OCCCO2 [compound 210]	h5-HT4b (Homo sapiens, UniProt Q13639)	5.25

Response field IC50 (h5-HT4b (Homo sapiens, UniProt Q13639)) for item Cc1cc2c(c(C(=O)NC[C@@H]3CCN(CCCCO)C[C@H]3O)c1)OCCO2 [compound 228] : 0.398

Response field IC50 (h5-HT4b (Homo sapiens, UniProt Q13639)) for item COCCCCN1CC[C@@H](CNC(=O)c2cc(N)cc3c2OCCO3)[C@H](O)C1 [compound 41] : 15.5

* * *

assay.system: h5-HT4b (Homo sapiens)
Construct: expressed in transfected cells; host or cells: HEK 293 (clone 9), membrane preparation
procedure.text: 5HT4 antagonism: [3H]GR113808 binding to membranes of h5-HT4b-HEK 293 clone 9 cells
condition.parameters: displacement of [3H]GR113808 0.1 nM, h5-HT4b-HEK 293 membranes, 30 min at 25° C.; read-out: pIC50 (5HT4 antagonistic data) (converted)
Below: a set of entries, each annotated with reported IC50.
Answer with a number only, understood to be in nM.

compound	units	observed.result
CNCCCCN1CC[C@@H](CNC(=O)c2cc(CC#N)cc3c2OCCCO3)[C@H](O)C1	nM	44.7
CNc1cc2c(c(C(=O)NC[C@@H]3CCN(CC4CCCO4)C[C@H]3O)c1)OCCCO2 (some centres unmarked)	nM	63.1

Response field IC50 (h5-HT4b (Homo sapiens)) for item Nc1cc(C(=O)NCC2CCN(CC3CCCO3)C[C@H]2O)c2c(c1Cl)OCCCO2 (some centres unmarked) : 14.5

Response field IC50 (h5-HT4b (Homo sapiens)) for item `Nc1cc2c(c(C(=O)NC[C@@H]3CCN(CCCC(=O)O)C[C@H]3O)c1)OCCCO2` : 1230

Response field IC50 (h5-HT4b (Homo sapiens)) for item `CCCNc1cc2c(c(C(=O)NC[C@@H]3CCN(CCCO)C[C@H]3O)c1)OCCCO2` : 89.1

Response field IC50 (h5-HT4b (Homo sapiens)) for item `CCCCN1CC[C@@H](CNC(=O)c2cc(CC#N)cc3c2OCCCO3)[C@H](O)C1` : 3.47

Response field IC50 (h5-HT4b (Homo sapiens)) for item `COCCCCN1CC[C@@H](CNC(=O)c2cc(N)c(Br)c3c2OCCO3)[C@H](O)C1` : 39.8

Response field IC50 (h5-HT4b (Homo sapiens)) for item `CNc1cc2c(c(C(=O)NC[C@@H]3CCN(CCCC(=O)O)C[C@H]3O)c1)OCCCO2` : 2630

* * *

procedure.text: Metabolic stability: % metabolism after 60 minutes incubation with active liver microsomes
Assay type: in vitro ADME
condition.parameters: compound 5 μM, microsomes 1 mg/ml, NADPH-generating system, 60 minutes at 37 degrees Celsius; compound numbers of WO-00/37461
test.readout: % metabolised compound (comparative structures of WO-00/37461) (%)
Answer with a number only, understood to be in %.

compound	observed.result
O=C(NC[C@@H]1CCN(CCOCCO)C[C@H]1O)c1cc(Cl)cc2c1OCCCO2 [WO-00/37461 Co. No. 128, reference compound]	26
O=C(NC[C@@H]1CCN(CCCCO)C[C@H]1O)c1cc(Cl)cc2c1OCCO2 [WO-00/37461 Co. No. 68, reference compound]	10
COCCCN1CC[C@@H](CNC(=O)c2cc(Cl)cc3c2OCCO3)[C@H](O)C1 [WO-00/37461 Co. No. 67, reference compound]	30
O=C(NC[C@@H]1CCN(CCCCO)C[C@H]1O)c1cc(Cl)cc2c1OCCCO2 [WO-00/37461 Co. No. 160, reference compound]	23
CCCCN1CC[C@@H](CNC(=O)c2cc(Cl)cc3c2OCCCO3)[C@H](O)C1 [WO-00/37461 Co. No. 119, reference compound]	68
CC1(CCCN2CC[C@@H](CNC(=O)c3cc(Cl)cc4c3OCCCO4)[C@H](O)C2)OCCO1 [WO-00/37461 Co. No. 124, reference compound]	49.5

Just so you know, measured % metabolised compound (comparative structures of WO-00/37461) for N#CCCCN1CC[C@@H](CNC(=O)c2cc(Cl)cc3c2OCCO3)[C@H](O)C1 [WO-00/37461 Co. No. 74, reference compound] came out at 50.5

Just so you know, measured % metabolised compound (comparative structures of WO-00/37461) for CC(=O)CCCN1CC[C@@H](CNC(=O)c2cc(Cl)cc3c2OCCCO3)[C@H](O)C1 [WO-00/37461 Co. No. 121, reference compound] came out at 30

Just so you know, measured % metabolised compound (comparative structures of WO-00/37461) for O=C(NC[C@@H]1CCN(CC2CCCO2)C[C@H]1O)c1cc(Cl)cc2c1OCCCO2 (stereo partly drawn) [WO-00/37461 Co. No. 122, reference compound] came out at 79

Just so you know, measured % metabolised compound (comparative structures of WO-00/37461) for O=C(NC[C@@H]1CCN(CCCO)C[C@H]1O)c1cc(Cl)cc2c1OCCCO2 [WO-00/37461 Co. No. 144, reference compound] came out at 11

Just so you know, measured % metabolised compound (comparative structures of WO-00/37461) for COCCCN1CC[C@@H](CNC(=O)c2cc(Cl)cc3c2OCCCO3)[C@H](O)C1 [WO-00/37461 Co. No. 120, reference compound] came out at 25

Just so you know, measured % metabolised compound (comparative structures of WO-00/37461) for O=C(NC[C@@H]1CCN(CCC2OCCO2)C[C@H]1O)c1cc(Cl)cc2c1OCCCO2 [WO-00/37461 Co. No. 143, reference compound] came out at 63

* * *

Below: a set of entries, each annotated with reported log10 of IC50.
assay.system: h5-HT4b (Homo sapiens, UniProt Q13639)
Construct: expressed in transfected cells; host or cells: HEK 293 (clone 9), membrane preparation
procedure.text: 5HT4 antagonism: [3H]GR113808 binding to membranes of h5-HT4b-HEK 293 clone 9 cells
condition.parameters: displacement of [3H]GR113808 0.1 nM, h5-HT4b-HEK 293 membranes, 30 min at 25° C.; read-out: pIC50 (5HT4 antagonistic data) (converted)
Note: values are log10 of IC50 expressed in nM.

Consider the worked cases shown below.
compound	observed.result
COCCCN1CC[C@@H](CNC(=O)c2cc(C#N)cc3c2OCCCO3)[C@H](OC)C1	1.57
CC(=O)CCCN1CC[C@@H](CNC(=O)c2cc(N)c(Cl)c3c2OCCO3)[C@H](O)C1	1.36
CS(=O)(=O)NCCN1CC[C@@H](CNC(=O)c2cc(N)c(Cl)c3c2OCCCO3)[C@H](O)C1	1.49

Just so you know, measured log10 of IC50 for `CCCCN1CC[C@@H](CNC(=O)c2cc(NCCC)cc3c2OCCCO3)[C@H](O)C1` came out at 1.98

Just so you know, measured log10 of IC50 for `Cc1cc2c(c(C(=O)NC[C@@H]3CCN(CCCC#N)C[C@H]3O)c1)OCCCO2` came out at 0.63

Just so you know, measured log10 of IC50 for `CNc1cc2c(c(C(=O)NC[C@@H]3CCN(CCCCO)C[C@H]3O)c1)OCCCO2` came out at 1.91

Just so you know, measured log10 of IC50 for CNc1cc2c(c(C(=O)NC[C@@H]3CCN(CC4CCCO4)C[C@H]3O)c1)OCCO2 (stereo partly shown) came out at 1.24

Just so you know, measured log10 of IC50 for `CCCCN1CCC(O)(CNC(=O)c2cc(C)cc3c2OCCCO3)CC1` came out at 0.33

Just so you know, measured log10 of IC50 for `CCCCN1CC[C@H](CNC(=O)c2cc(C)cc3c2OCCCO3)[C@H](O)C1` came out at -0.10

Just so you know, measured log10 of IC50 for `CCCCN1CC[C@@H](CNC(=O)c2cc(NC)cc3c2OCCO3)[C@H](O)C1` came out at 1.21

Just so you know, measured log10 of IC50 for `CO[C@@H]1CN(CCCNS(C)(=O)=O)CC[C@H]1CNC(=O)c1cc(C#N)cc2c1OCCCO2` came out at 1.68

Just so you know, measured log10 of IC50 for `Nc1cc(C(=O)NC[C@@H]2CCN(CCCO)C[C@H]2O)c2c(c1Br)OCCO2` came out at 1.97

Just so you know, measured log10 of IC50 for `Cc1cc2c(c(C(=O)NC[C@@H]3CCN(CCCCNS(C)(=O)=O)C[C@H]3O)c1)OCCCO2` came out at 0.23

Just so you know, measured log10 of IC50 for `Nc1cc2c(c(C(=O)NC[C@@H]3CCN(CCC4OCCO4)C[C@H]3O)c1)OCCCO2` came out at 1.78

Just so you know, measured log10 of IC50 for `CCNc1cc2c(c(C(=O)NC[C@@H]3CCN(CCCOC)C[C@H]3O)c1)OCCCO2` came out at 2.03

Just so you know, measured log10 of IC50 for `COCCCN1CC[C@@H](CNC(=O)c2cc(NC(C)C)cc3c2OCCCO3)[C@H](O)C1` came out at 1.80
